- test system: soluble human FcRn (human) (UniProt P55899)
- Sequence (P55899 24-297, chain 1 of 2): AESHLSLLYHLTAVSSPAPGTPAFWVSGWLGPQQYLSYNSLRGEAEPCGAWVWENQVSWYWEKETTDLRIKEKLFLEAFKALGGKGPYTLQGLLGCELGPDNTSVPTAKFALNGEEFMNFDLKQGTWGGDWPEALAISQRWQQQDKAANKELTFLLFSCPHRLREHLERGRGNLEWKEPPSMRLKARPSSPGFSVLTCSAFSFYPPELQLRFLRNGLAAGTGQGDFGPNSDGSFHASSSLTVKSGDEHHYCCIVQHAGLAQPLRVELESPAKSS
- Sequence (P61769 21-119, chain 2 of 2, further chain): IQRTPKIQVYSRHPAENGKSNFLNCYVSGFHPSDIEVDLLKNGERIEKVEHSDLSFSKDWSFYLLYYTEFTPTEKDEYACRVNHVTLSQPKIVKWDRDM
- assay name: ELISA on coated shFcRn, scFv 100 ng/mL, pH 6.0
measurement name: ELISA (OD450)
Answers are plain numbers, in OD450.

A12-E05 (scFv, V domains shown, not shown: small tags and cut ends, scFv linker not given) VH: EVQLVESGGGLVQPGRSLRLSCAASGFTFDEYGMHWVRQAPGKGLEWVSGVSWNSGSIAYADSVRGRFTISRDNAKNSLYLQMNSLRAEDTALYYCAKGRILDVWGQGTTVTVSS VL: QSALTQPASVSGSPGQSITISCTGSSSDVGGYNYVSWYQQHPGKAPKLMIYDVTKRPSGVSNRFSGSKSGNTASLTISGLQAEDEADYYGSYNNSTFYVFGTGTKVTVLG : 2.06

Look up ELISA (OD450) for the entries below, preserving their order.
1. A12-E01 (scFv, V domains shown, not shown: small tags and cut ends, linker not given) VH: EVQLVESGGGLVQPGRSLRLSCAASGFTFDEYGMHWVRQAPGKGLEWVSGVSWNSGSIAYADSVRGRFTISRDNAKNSLYLQMNSLRAEDTALYYCAKSRSMDVWGQGTTVTVSS VL: QSALTQPASVSGSPGQSITISCTGSSSDVGGYNYVSWYQQHPGKAPKLMIYDVTKRPSGVSNRFSGSKSGNTASLTISGLQAEDEADYYGSYSNNNFYVFGTGTKVTVLG
2. A12-E04 (scFv, V domains shown, not shown: small tags and cut ends, linker not given) VH: EVQLVESGGGLVQPGRSLRLSCAASGFTFDEYGMHWVRQAPGKGLEWVSGVSWNSGSIAYADSVRGRFTISRDNAKNSLYLQMNSLRAEDTALYYCAKGRLFDVWGQGTTVTVSS VL: QSALTQPASVSGSPGQSITISCTGSSSDVGGYNYVSWYQQHPGKAPKLMIYDVTKRPSGVSNRFSGSKSGNTASLTISGLQAEDEADYYGSYSNSNFYVFGTGTKVTVLG

Reply text:
1. 1.71
2. 1.59

Inquiry: Determine its reported ELISA (OD450): A12-H04 (scFv, V domains shown, not shown: small tags and cut ends, linker not given) VH: EVQLVESGGGLVQPGRSLRLSCAASGFTFDEYGMHWVRQAPGKGLEWVSGVSWNSGSIAYADSVRGRFTISRDNAKNSLYLQMNSLRAEDTALYYCAKGRLLDVWGQGTTVTVSS VL: QSALTQPASVSGSPGQSITISCTGSSSDVGGYNYVSWYQQHPGKAPKLMIYDVTKRPSGVSNRFSGSKSGNTASLTISGLQAEDEADYYGAYSNTNFYVFGTGTKVTVLG
Reply text: 2.26
